Data origin, for the record: paper PMC9482650

- experimental-target: Inadl_5, Q8NI35
- Sequence (Q8NI35 673-780): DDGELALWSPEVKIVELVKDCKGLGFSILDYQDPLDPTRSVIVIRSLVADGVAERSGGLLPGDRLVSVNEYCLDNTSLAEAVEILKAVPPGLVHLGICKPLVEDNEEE
- protocol-summary: holdup assay
- Set-up: key: below the threshold = too weak to quantify, mostly under pKd 3.1 to 4
- condition: plain residues with an end cap or a label only (N-terminal biotin on a linker: ttds)
endpoint-name: pKd

As a guide, the following entries are already answered.
binder	value-measured
SVWLRKETRV [CYSLTR2, Q9NS75]	3.62
GQDSREETQL [KCNT2, Q6UVM3]	below the threshold
SRPQRTQTQV [HPV67-E6, A4U7F2]	below the threshold
PKTPPTDTSV [KIR3DL3, Q8N743]	below the threshold

# ---- query binder ----
Would you kindly share the measured pKd for QSARYRDTEL [TJP2, Q9UDY2] ?
below the threshold
